Assay: The drug is tested on WLS-220 corresponding to human gut metagenome with ENA study accession number: PRJEB37062 and ENA sample accession number: ERS12561769 for biotransformation under anaerobic condition. The drug concentrations were measured over 9 timepoints collected between 0 and 24 hours of incubation by liquid-chromatography-coupled mass spectrometry (LC–MS); also: call rule not given here
Conditions: 2 µM

[
  {
    "molecule": "OC(Cn1cncn1)(Cn1cncn1)c1ccc(F)cc1F [FLUCONAZOLE]",
    "Bacterial Biotransformation": "Compound NOT metabolized"
  },
  {
    "molecule": "Nc1nc2ccc(OC(F)(F)F)cc2s1 [RILUZOLE]",
    "Bacterial Biotransformation": "Compound metabolized"
  },
  {
    "molecule": "CCN(CC)CCNC(=O)c1cc(Cl)c(N)cc1OC [METOCLOPRAMIDE]",
    "Bacterial Biotransformation": "Compound NOT metabolized"
  },
  {
    "molecule": "NC(=O)N1c2ccccc2CC(=O)c2ccccc21 [OXCARBAZEPINE]",
    "Bacterial Biotransformation": "Compound NOT metabolized"
  },
  {
    "molecule": "COc1ccc2c3c1O[C@H]1C[C@@H](O)C=C[C@@]31CCN(C)C2 [GALANTAMINE]",
    "Bacterial Biotransformation": "Compound metabolized"
  },
  {
    "molecule": "CCN(CC)C(C)CN1c2ccccc2Sc2ccccc21 (centres undefined) [ETHOPROPAZINE]",
    "Bacterial Biotransformation": "Compound metabolized"
  },
  {
    "molecule": "CN(C)CCc1c[nH]c2ccc(Cn3cncn3)cc12.O=C(O)c1ccccc1 [RIZATRIPTAN BENZOATE]",
    "Bacterial Biotransformation": "Compound NOT metabolized"
  },
  {
    "molecule": "CS(=O)(=O)O.O.O.O.O=C1Cc2cc(CCN3CCN(c4nsc5ccccc45)CC3)c(Cl)cc2N1 [ZIPRASIDONE MESYLATE]",
    "Bacterial Biotransformation": "Compound metabolized"
  },
  {
    "molecule": "C[C@@H](CO)NC(=O)[C@@H]1C=C2c3cccc4[nH]cc(c34)C[C@H]2N(C)C1.O=C(O)/C=C\\C(=O)O [ERGONOVINE MALEATE]",
    "Bacterial Biotransformation": "Compound NOT metabolized"
  }
]

====

Experiment: The drug is tested on WLS-098 corresponding to human gut metagenome with ENA study accession number: PRJEB37062 and ENA sample accession number: ERS12561754 for biotransformation under anaerobic condition. The drug concentrations were measured over 9 timepoints collected between 0 and 24 hours of incubation by liquid-chromatography-coupled mass spectrometry (LC–MS)
Details: 2 µM

[
  {
    "molecule": "CN(C(=O)CN(CCO)CC(=O)N(C)C(C)(C)Cc1ccccc1)C(C)(C)Cc1ccccc1",
    "Bacterial Biotransformation": "Compound metabolized"
  },
  {
    "molecule": "CC(C)(C(=O)O)c1ccc(C(O)CCCN2CCC(C(O)(c3ccccc3)c3ccccc3)CC2)cc1 (stereo not given) [FEXOFENADINE]",
    "Bacterial Biotransformation": "Compound NOT metabolized"
  },
  {
    "molecule": "CS(=O)(=O)O.OC(CCN1CCCCC1)(c1ccccc1)c1ccccc1 [PRIDINOL METHANESULFONATE]",
    "Bacterial Biotransformation": "Compound metabolized"
  },
  {
    "molecule": "CCc1nn(CCCN2CCN(c3cccc(Cl)c3)CC2)c(=O)n1CCOc1ccccc1",
    "Bacterial Biotransformation": "Compound metabolized"
  },
  {
    "molecule": "NC(=O)N1c2ccccc2CC(=O)c2ccccc21 [OXCARBAZEPINE]",
    "Bacterial Biotransformation": "Compound NOT metabolized"
  },
  {
    "molecule": "Cc1ccc(S(=O)(=O)NC(=O)NN2CC3CCCC3C2)cc1 (stereo not given) [GLICLAZIDE]",
    "Bacterial Biotransformation": "Compound metabolized"
  },
  {
    "molecule": "C=CCN1CC[C@]23c4c5ccc(O)c4O[C@H]2C(=O)CC[C@@]3(O)[C@H]1C5",
    "Bacterial Biotransformation": "Compound NOT metabolized"
  },
  {
    "molecule": "CCN(CC)CCNC(C(=O)OCCC(C)C)c1ccccc1.Cl.Cl (stereo not given)",
    "Bacterial Biotransformation": "Compound metabolized"
  },
  {
    "molecule": "CC(CN1c2ccccc2Sc2ccccc21)N(C)C (stereo not given)",
    "Bacterial Biotransformation": "Compound metabolized"
  },
  {
    "molecule": "CCN(CC)CC#CCOC(=O)C(O)(c1ccccc1)C1CCCCC1.Cl (stereo not given) [OXYBUTYNIN CHLORIDE]",
    "Bacterial Biotransformation": "Compound metabolized"
  }
]
